# measured.on: HBV DNA polymerase (Hepatitis B virus genotype D subtype ayw)
# Construct: the endogenous HBV DNA polymerase activity; virus particles purified by ultracentrifugation and lysed
# Sequence (P03156 whole entry): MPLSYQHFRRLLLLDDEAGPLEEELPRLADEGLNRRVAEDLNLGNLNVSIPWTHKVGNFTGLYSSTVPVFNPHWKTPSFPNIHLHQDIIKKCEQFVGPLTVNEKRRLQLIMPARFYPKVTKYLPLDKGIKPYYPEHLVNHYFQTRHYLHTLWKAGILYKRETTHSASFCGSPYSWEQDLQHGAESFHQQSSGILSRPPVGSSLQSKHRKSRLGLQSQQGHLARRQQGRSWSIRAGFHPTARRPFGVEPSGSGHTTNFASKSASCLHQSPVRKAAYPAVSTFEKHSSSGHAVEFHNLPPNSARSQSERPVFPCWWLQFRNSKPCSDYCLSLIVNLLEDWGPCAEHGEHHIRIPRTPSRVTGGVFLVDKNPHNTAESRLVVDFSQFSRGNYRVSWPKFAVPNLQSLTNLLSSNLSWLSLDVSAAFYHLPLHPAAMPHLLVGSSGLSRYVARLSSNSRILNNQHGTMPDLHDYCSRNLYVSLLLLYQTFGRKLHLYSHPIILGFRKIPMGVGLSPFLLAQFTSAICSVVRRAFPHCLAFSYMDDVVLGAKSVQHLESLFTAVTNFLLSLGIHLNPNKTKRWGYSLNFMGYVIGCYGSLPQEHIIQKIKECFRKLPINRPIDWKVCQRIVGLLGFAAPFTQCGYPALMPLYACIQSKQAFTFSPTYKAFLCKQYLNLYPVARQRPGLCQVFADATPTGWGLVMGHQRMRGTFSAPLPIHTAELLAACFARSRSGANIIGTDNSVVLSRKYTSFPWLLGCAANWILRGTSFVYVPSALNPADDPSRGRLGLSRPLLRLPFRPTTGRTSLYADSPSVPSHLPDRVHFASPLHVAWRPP
# assay.procedure: Inhibition of endogenous HBV DNA polymerase by nucleoside triphosphates
# condition.label: virus particles from patient serum, 3H-dCTP, 1 h 37° C., read-out: IC50, 50% inhibition of the HBV DNA polymerase activity
measure.name: pIC50
Please report pIC50 as the negative decimal logarithm of the molar concentration, giving only the number.

Entry O=c1nc(NO)ccn1[C@@H]1C[C@@H](O)[C@H](COP(=O)(O)OP(=O)(O)OP(=O)(O)O)O1 [Triphosphate of L-HyCdR] has what pIC50? 5.22

Now give it for Cc1cn([C@@H]2C[C@@H](O)[C@H](COP(=O)(O)OP(=O)(O)OP(=O)(O)O)O2)c(=O)nc1NO [Triphosphate of L-HyMetCdR] too. 5.40
